- Test system: MRSA (NRS384 strain of USA300)
- ASSAY_REMARKS: MIC determinations for extracellular bacteria
- ASSAY_CONTEXT: Staphylococcus aureus, read-out: Extracellular MRSA MIC
Entries and their MIC
Express your answer in µg/mL, writing the number without its unit.

Worked set:
[
  {
    "MOLECULE": "CO[C@H]1/C=C/O[C@@]2(C)Oc3c(C)c(O)c4c(O)c(c(/C=N/N5CCN(C)CC5)c(O)c4c3C2=O)NC(=O)/C(C)=C\\C=C\\[C@H](C)[C@H](O)[C@@H](C)[C@@H](O)[C@@H](C)[C@H](OC(C)=O)[C@@H]1C [Rifampicin]",
    "TARGET_OF_ASSAY": "MRSA (NRS384 strain of USA300)",
    "MIC / µg/mL": 0.004
  },
  {
    "MOLECULE": "CCCCCCCCCC(=O)N[C@@H](Cc1c[nH]c2ccccc12)C(=O)N[C@H](CC(N)=O)C(=O)N[C@@H](CC(=O)O)C(=O)N[C@@H]1C(=O)NCC(=O)N[C@@H](CCCN)C(=O)N[C@@H](CC(=O)O)C(=O)N[C@H](C)C(=O)N[C@@H](CC(=O)O)C(=O)NCC(=O)N[C@H](CO)C(=O)N[C@@H]([C@H](C)CC(=O)O)C(=O)N[C@@H](CC(=O)c2ccccc2N)C(=O)O[C@@H]1C [Daptomycin]",
    "TARGET_OF_ASSAY": "MRSA (NRS384 strain of USA300)",
    "MIC / µg/mL": 4
  },
  {
    "MOLECULE": "CC(=O)NC[C@H]1CN(c2ccc(N3CCOCC3)c(F)c2)C(=O)O1 [Linezolid]",
    "TARGET_OF_ASSAY": "MRSA (NRS384 strain of USA300)",
    "MIC / µg/mL": 0.3
  }
]

// next item, MIC requested
Query: MIC; subject: CN[C@H](CC(C)C)C(=O)N[C@H]1C(=O)N[C@@H](CC(N)=O)C(=O)N[C@H]2C(=O)N[C@H]3C(=O)N[C@H](C(=O)N[C@H](C(=O)O)c4cc(O)cc(O)c4-c4cc3ccc4O)[C@H](O)c3ccc(c(Cl)c3)Oc3cc2cc(c3O[C@@H]2O[C@H](CO)[C@@H](O)[C@H](O)[C@H]2O[C@H]2C[C@](C)(N)[C@H](O)[C@H](C)O2)Oc2ccc(cc2Cl)[C@H]1O [Vancomycin]
1
